Reference for the values: ChEMBL document CHEMBL1138617

assay: Cytotoxicity against human hepatocytes by MTT assay; assay type: cell-based, Hepatocyte
outcome_measure: CC50 (µM)

compound | result_value
COc1c2occc2c(OC)c2c(=O)c(C=O)coc12 | 234
COc1c(C(=O)/C=C/Nc2ccncc2)c(O)c(OC)c2occc12 | 435
NCc1nc2ccccc2[nH]1 | 451
CCC[C@H](NC(=O)[C@@H]1[C@H]2CCC[C@H]2CN1C(=O)[C@@H](NC(=O)[C@@H](NC(=O)c1cnccn1)C1CCCCC1)C(C)(C)C)C(=O)C(=O)NC1CC1 | 90
COc1c(C(=O)C2=CN3C=CSC3N=C2)c(O)c(OC)c2occc12 (configuration not stated) | 127
COc1c(C(=O)c2cnc3nc4ccccc4n3c2)c(O)c(OC)c2occc12 | 234
COc1c(C(=O)C2=CN3C(=CN=C2)Nc2ccccc23)c(O)c(OC)c2occc12 | 256
